target: Abl (Homo sapiens); experiment: KinaseProfiler kinase activity assay; format: biochemical; details: Abl wild-type; ATP at Km
Sequence (P00519 whole entry): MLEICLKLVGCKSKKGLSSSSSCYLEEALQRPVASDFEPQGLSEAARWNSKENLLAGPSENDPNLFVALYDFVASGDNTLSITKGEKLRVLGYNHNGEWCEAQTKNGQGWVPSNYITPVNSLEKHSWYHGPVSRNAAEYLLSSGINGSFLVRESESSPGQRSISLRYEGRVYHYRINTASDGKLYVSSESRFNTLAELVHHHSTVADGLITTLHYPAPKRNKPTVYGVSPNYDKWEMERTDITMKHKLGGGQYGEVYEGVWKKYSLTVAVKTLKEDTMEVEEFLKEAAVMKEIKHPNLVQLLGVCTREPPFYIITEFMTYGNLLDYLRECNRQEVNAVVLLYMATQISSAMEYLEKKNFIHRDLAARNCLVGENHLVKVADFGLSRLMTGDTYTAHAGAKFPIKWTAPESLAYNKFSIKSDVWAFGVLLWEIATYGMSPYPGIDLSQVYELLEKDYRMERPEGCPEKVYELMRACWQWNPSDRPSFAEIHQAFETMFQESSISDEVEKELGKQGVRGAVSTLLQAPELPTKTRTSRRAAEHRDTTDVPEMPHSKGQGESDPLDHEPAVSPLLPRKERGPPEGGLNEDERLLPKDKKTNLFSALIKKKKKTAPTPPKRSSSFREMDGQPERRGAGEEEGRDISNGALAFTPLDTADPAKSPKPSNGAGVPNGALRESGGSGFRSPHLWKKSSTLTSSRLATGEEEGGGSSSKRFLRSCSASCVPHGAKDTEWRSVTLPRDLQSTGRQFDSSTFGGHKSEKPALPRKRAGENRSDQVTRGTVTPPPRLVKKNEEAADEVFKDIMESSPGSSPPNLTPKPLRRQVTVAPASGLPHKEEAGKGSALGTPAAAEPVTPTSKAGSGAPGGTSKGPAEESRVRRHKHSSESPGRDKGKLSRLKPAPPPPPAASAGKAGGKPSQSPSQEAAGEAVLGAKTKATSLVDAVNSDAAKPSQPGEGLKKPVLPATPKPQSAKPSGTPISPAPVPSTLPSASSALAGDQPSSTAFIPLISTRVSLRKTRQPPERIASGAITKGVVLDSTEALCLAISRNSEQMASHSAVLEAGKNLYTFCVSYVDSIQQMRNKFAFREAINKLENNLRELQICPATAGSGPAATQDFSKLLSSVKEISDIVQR
assay_endpoint: IC50 (nM)
Dear colleague, please return just the value in nM, with no unit written.

I am curious: what IC50 value has been reported for Nc1nc(Nc2ccc3c(c2)CC[C@@H](N2CCCC2)CC3)nn1-c1cc2c(nn1)-c1ccccc1CCC2 [Compound A] ?
51

====

Molecular target: Tyro3 (Homo sapiens, UniProt Q06418)
Sequence (Q06418 41-890): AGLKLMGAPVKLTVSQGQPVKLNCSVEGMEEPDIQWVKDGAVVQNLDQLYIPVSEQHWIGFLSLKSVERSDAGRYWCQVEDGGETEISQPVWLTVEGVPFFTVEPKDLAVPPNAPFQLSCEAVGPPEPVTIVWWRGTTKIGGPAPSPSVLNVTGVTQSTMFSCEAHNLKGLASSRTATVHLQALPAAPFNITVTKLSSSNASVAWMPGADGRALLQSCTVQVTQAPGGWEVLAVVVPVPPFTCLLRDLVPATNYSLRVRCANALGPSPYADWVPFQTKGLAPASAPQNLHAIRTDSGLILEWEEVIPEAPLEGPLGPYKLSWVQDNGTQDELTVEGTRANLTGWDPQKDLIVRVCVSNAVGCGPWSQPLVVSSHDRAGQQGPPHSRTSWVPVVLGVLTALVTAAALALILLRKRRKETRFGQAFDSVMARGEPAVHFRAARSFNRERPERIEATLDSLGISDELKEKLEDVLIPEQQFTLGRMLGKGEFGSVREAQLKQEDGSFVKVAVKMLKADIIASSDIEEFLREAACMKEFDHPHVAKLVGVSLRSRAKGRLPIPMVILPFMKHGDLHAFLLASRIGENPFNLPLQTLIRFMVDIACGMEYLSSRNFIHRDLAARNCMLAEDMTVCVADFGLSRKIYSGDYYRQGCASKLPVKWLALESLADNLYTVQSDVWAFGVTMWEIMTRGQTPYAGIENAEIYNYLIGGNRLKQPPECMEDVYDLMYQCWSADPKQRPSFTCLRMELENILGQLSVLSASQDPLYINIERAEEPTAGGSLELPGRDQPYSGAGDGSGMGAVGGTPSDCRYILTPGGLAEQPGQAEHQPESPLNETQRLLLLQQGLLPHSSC
Assay: KinaseProfiler kinase activity assay
Format: biochemical
Parameters: purchased EMD Millipore Corp. (KinaseProfiler service)
Details: ATP at Km
assay_endpoint: IC50 (nM)
Express it in nM; write the number only.

I'd like to know its IC50. The compound in question is Nc1nc(Nc2ccc3c(c2)CC[C@@H](N2CCCC2)CC3)nn1-c1cc2c(nn1)-c1ccccc1CCC2 [Compound A]
413

====

target: Flt1 (Homo sapiens); assay: KinomeScan competition binding assay; parameters: purchased DiscoveRx Corporation (KinomeScan service)
Sequence (P17948 27-1338): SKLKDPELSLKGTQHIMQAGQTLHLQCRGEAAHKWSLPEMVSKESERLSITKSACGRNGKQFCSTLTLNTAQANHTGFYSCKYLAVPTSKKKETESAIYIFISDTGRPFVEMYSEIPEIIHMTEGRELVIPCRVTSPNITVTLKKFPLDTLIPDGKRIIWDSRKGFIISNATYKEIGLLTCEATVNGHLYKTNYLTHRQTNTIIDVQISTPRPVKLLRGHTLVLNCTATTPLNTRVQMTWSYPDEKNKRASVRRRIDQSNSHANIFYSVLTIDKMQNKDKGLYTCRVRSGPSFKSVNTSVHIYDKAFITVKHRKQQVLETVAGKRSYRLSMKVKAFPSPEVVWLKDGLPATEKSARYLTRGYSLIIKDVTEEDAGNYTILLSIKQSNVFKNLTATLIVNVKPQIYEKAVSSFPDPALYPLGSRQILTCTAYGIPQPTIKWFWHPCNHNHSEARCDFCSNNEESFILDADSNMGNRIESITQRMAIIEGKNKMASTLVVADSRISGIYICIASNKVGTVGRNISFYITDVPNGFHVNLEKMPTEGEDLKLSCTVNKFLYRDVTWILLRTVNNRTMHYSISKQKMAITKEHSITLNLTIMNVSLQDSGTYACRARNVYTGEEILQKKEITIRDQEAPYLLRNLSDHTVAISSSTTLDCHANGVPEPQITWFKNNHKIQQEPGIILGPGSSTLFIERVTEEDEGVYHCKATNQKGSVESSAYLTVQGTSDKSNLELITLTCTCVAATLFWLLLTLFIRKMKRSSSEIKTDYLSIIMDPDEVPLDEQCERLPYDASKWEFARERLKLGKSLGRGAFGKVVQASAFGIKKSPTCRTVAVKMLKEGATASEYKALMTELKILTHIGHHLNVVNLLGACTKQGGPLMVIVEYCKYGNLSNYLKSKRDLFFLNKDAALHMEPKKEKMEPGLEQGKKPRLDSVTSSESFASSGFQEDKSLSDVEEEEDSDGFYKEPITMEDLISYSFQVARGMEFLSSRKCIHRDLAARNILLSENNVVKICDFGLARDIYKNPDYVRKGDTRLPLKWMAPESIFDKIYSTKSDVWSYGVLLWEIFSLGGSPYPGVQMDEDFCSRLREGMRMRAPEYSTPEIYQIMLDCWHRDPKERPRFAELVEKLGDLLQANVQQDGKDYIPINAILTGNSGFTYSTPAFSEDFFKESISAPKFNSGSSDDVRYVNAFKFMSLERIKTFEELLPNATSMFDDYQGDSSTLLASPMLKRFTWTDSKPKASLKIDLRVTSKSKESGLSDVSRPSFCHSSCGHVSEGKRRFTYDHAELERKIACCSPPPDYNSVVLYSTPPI
assay_endpoint: Kd (nM)
I only need the number, in nM, no unit after it.

Form field: reported Kd of Nc1nc(Nc2ccc3c(c2)CC[C@@H](N2CCCC2)CC3)nn1-c1cc2c(nn1)-c1ccccc1CCC2 [Compound A]
400

====

target: c-Kit (V654A) (Homo sapiens, UniProt P10721, V654A); test: KinaseProfiler kinase activity assay
Sequence (P10721 26-976 V654A): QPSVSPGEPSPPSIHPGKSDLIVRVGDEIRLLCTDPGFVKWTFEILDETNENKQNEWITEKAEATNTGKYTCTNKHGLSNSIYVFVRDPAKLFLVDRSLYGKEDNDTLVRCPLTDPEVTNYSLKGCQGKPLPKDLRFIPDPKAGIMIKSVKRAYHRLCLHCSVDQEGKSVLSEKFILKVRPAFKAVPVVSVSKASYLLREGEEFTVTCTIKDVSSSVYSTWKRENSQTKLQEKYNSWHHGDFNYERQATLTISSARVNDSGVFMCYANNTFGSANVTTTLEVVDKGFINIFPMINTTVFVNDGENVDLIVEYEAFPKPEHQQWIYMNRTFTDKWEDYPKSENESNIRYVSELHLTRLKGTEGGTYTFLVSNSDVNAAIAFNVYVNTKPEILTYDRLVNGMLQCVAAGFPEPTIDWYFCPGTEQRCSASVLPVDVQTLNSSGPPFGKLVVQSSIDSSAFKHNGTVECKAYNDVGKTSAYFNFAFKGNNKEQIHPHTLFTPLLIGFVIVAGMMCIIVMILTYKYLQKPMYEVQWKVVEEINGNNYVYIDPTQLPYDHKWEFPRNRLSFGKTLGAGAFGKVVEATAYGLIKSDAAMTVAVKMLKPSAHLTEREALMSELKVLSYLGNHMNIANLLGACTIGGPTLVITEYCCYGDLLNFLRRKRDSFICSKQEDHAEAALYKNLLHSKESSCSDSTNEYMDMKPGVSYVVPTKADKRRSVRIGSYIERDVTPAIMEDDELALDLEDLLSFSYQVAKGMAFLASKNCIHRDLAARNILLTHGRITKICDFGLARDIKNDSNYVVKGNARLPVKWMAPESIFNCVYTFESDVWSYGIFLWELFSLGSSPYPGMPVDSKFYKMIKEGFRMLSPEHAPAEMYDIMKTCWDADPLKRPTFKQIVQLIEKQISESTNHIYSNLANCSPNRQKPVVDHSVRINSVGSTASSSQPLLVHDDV
assay_endpoint: IC50 (nM)
State the answer as a number, implicitly in nM.

Would you mind telling me what IC50 value was observed for Nc1nc(Nc2ccc3c(c2)CC[C@@H](N2CCCC2)CC3)nn1-c1cc2c(nn1)-c1ccccc1CCC2 [Compound A] ?
286

====

Target: Flt3 (Homo sapiens, UniProt P36888)
Sequence (P36888 27-993): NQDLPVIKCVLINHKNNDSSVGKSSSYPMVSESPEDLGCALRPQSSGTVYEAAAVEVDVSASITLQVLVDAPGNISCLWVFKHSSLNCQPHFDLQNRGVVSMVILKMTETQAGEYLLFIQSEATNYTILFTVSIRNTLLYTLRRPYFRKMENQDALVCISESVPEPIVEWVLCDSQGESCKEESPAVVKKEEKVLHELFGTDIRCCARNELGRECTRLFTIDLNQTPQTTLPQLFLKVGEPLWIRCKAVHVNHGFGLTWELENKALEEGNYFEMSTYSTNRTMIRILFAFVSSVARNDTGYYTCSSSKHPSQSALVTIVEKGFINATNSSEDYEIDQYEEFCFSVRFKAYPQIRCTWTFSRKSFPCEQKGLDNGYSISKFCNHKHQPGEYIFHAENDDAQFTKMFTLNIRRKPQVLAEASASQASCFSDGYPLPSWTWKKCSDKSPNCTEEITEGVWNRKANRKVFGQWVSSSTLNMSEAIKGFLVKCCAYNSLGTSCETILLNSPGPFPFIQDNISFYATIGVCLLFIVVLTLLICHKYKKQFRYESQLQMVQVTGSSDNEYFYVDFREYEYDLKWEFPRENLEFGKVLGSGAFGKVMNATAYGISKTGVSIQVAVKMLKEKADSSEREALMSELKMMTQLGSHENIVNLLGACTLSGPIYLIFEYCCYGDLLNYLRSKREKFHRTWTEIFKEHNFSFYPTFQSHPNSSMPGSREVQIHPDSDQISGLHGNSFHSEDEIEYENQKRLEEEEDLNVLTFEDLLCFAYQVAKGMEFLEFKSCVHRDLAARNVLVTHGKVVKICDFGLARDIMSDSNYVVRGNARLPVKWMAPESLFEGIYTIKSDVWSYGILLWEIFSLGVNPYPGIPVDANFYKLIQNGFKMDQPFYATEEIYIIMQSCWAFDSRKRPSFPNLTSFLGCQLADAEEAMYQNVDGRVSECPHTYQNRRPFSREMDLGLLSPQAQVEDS
Assay: KinomeScan competition binding assay
Parameters: purchased DiscoveRx Corporation (KinomeScan service)
Details: Flt3 wild-type
assay_endpoint: Kd (nM)
Your answer is read as nM, so omit the unit and give the number.

Bench note: what Kd did Nc1nc(Nc2ccc3c(c2)CC[C@@H](N2CCCC2)CC3)nn1-c1cc2c(nn1)-c1ccccc1CCC2 [Compound A] show?
50

====

target: UniProt P00519
assay_endpoint: Kd (nM)
// units = nM; emit number, no label

Short answer please: Kd, UniProt P00519, entry `Nc1nc(Nc2ccc3c(c2)CC[C@@H](N2CCCC2)CC3)nn1-c1cc2c(nn1)-c1ccccc1CCC2`
52

====

biological target: c-Kit (D816H) (Homo sapiens, UniProt P10721, D816H); assay: KinaseProfiler kinase activity assay
Sequence (P10721 26-976 D816H): as the sequence (P10721 26-976 V654A) above, with A629V, D791H counted along it
assay_endpoint: IC50
Remember to follow the number with its unit.

What IC50 appears in the records for this molecule with c-Kit (D816H) (Homo sapiens, UniProt P10721, D816H)? Nc1nc(Nc2ccc3c(c2)CC[C@@H](N2CCCC2)CC3)nn1-c1cc2c(nn1)-c1ccccc1CCC2 [Compound A]
8 nM

====

Target: Flt3 (Homo sapiens)
Sequence (P36888 27-993): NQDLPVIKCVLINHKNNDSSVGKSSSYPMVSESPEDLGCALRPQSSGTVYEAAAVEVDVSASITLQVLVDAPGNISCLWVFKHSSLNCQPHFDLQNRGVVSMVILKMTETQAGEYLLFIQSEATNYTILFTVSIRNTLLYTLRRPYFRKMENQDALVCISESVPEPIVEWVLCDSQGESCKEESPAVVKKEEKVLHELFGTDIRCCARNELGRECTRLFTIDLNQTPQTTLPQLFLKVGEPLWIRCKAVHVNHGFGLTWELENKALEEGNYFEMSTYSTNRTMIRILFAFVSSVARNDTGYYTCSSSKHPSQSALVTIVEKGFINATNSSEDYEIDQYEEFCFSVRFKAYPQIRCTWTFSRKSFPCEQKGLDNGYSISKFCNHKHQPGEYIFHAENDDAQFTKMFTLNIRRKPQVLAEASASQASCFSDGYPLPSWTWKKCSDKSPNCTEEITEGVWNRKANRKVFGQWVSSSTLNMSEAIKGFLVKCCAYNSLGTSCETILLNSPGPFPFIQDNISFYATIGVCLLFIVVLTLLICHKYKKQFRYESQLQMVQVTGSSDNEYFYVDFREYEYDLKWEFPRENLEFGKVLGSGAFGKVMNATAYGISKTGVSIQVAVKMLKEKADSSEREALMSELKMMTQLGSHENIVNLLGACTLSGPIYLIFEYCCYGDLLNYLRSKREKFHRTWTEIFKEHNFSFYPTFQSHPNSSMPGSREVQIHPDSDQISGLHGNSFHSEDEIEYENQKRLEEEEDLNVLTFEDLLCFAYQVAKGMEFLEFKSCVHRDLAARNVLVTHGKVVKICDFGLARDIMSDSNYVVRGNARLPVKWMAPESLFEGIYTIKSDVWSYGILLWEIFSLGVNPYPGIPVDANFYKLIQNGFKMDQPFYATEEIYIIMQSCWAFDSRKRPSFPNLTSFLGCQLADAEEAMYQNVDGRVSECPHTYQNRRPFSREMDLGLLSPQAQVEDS
Assay: KinaseProfiler kinase activity assay
Format: biochemical
Parameters: purchased EMD Millipore Corp. (KinaseProfiler service)
Conditions: Flt3 wild-type; ATP at Km
assay_endpoint: IC50 (nM)
Kindly answer with a numeric value in nM, unit omitted.

What value of IC50 has been reported for the following compound? `Nc1nc(Nc2ccc3c(c2)CC[C@@H](N2CCCC2)CC3)nn1-c1cc2c(nn1)-c1ccccc1CCC2`
122
